Smiles Code	melting point
CC(C)(C)CNC(=O)c1ccc2c(=O)[nH]c(SCc3ccccc3F)nc2c1	210.3 to 212.2 °C
COC(=O)c1cccc(CSc2nc3cc(C(=O)NCC(C)(C)C)ccc3c(=O)[nH]2)c1	269.6 to 271.4 °C
O=C(O)c1ccc2c(=O)[nH]c(SCc3ccccc3Cl)nc2c1	280 °C (dec.)
CC(C)(C)CNC(=O)c1ccc2c(=O)[nH]c(SCc3ccc(Cl)c(Cl)c3)nc2c1	215.5 to 216.9 °C
O=C(O)c1ccc2c(=O)n(-c3ccccc3)c(SCc3ccccc3Cl)nc2c1	277.8 to 279.8 °C
CC(C)(C)CNC(=O)c1ccc2c(=O)[nH]c(NCc3ccccc3Cl)nc2c1	176.7 to 178.7 °C
CC(C)(C)CNC(=O)c1ccc2c(=O)[nH]c(SCc3cccc(C(=O)O)c3)nc2c1	250.6 to 252.6 °C
CC(C)NC(=O)c1ccc2c(=O)[nH]c(SCc3ccccc3Cl)nc2c1	306.3 °C (dec.)

The measurements presented in this section are drawn from paper PMC9583330.
